Entries annotated with measured Inhibition of CYP 2E1 (%)
target: human liver microsomal cytochrome P450 2E1 (CYP2E1) (Homo sapiens); assay: Chlorzoxazone hydroxylation inhibition (6-OH-CZX by LC/MS/MS); details: tested concentration 33 μM
Sequence (P05181 whole entry): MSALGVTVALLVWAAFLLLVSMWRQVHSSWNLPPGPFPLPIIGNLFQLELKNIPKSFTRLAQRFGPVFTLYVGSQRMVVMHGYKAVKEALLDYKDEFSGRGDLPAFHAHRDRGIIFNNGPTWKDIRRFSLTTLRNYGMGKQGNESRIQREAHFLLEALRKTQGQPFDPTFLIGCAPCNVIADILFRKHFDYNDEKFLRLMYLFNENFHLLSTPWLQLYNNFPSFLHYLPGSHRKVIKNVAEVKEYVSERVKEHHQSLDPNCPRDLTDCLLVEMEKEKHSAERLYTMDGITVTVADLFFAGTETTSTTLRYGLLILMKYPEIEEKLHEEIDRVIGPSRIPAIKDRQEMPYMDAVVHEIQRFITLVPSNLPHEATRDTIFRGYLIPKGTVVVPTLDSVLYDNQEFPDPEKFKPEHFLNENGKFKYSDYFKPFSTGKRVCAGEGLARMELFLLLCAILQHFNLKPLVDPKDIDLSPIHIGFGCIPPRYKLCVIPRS
reported.property: Inhibition of CYP 2E1 (%)

>>> readout_value("COc1ccc([C@@H]2CC(=O)c3c(O)cc(O[C@@H]4O[C@H](CO)[C@@H](O)[C@H](O)[C@H]4O[C@@H]4O[C@@H](C)[C@H](O)[C@@H](O)[C@H]4O)cc3O2)cc1O [Neohesperidin]")
48.96
>>> readout_value("C=C(C)C1CC=C(C)CC1 (single isomer, unassigned; (+)) [(+)-Limonene]")
38.05
>>> readout_value("O=c1cc(-c2ccc(O)c(O)c2)oc2cc(O[C@@H]3O[C@H](CO)[C@@H](O)[C@H](O)[C@H]3O)cc(O)c12 [Luteolin-7-Glucoside]")
55.87
>>> readout_value("Oc1cc(O)c2c(c1)O[C@H](c1cc(O)c(O)c(O)c1)[C@H](O)C2 [(−)-Epigallocatechin]")
36.40
>>> readout_value("O=C(O[C@@H]1Cc2c(O)cc(O)cc2O[C@@H]1c1cc(O)c(O)c(O)c1)c1cc(O)c(O)c(O)c1 [(−)-Epigallocetechin-3-gallate]")
60.53
>>> readout_value("COc1c(O)cc2oc(Oc3ccc(O)cc3)cc(=O)c2c1O [Capillarisin]")
46.22
>>> readout_value("Oc1cc(O)c2c(c1)O[C@@H](c1ccc(O)c(O)c1)[C@@H](O)C2 [(+)-Epicatechin]")
52.32
>>> readout_value("COc1ccc([C@@H]2CC(=O)c3c(O)cc(O[C@@H]4O[C@H](CO[C@@H]5O[C@@H](C)[C@H](O)[C@@H](O)[C@H]5O)[C@@H](O)[C@H](O)[C@H]4O)cc3O2)cc1O [Hesperidin]")
50.91
